Assay: chemical genetic growth profiling, strain panel (AID 1159580);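 further: tested at 20 µM; growth read once vehicle control cultures reached saturation at 30 °C; 1 = growth at the plate median or of vehicle wells; lower values mean less growth of the strain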
Conditions: S. cerevisiae deletion strains, growth OD, locus YNL128W, strain TEP1, hits give low values
Among all 5,500 compounds or so, about 2,000 (36%) were called active. Not shown: some 18% with an inconclusive outcome. Some of the results follow. Where a SMILES comes first, the peptide text is derived from it. The star is where a group is joined. For = O=C*
Mark each entry T if its normalized growth sits below 1, and F for all others.

Consider CCCc1nc(-c2ccccn2)[nH]c(=O)c1CC1CC1 . Does its normalized growth lie strictly below 1? T

Confirm or reject: normalized growth of CC(C)=CCCC1(C)C=Cc2c(O)c3c(c(CC=C(C)C)c2O1)OC12C(=CC4CC1C(C)(C)OC2(C/C=C(/C)C(=O)O)C4O)C3=O (stereo not given) lies strictly below 1 T

Just wondering, is normalized growth of CSCCC(NC=O)C(=O)NC(Cc1ccccc1)C(=O)O (stereo not drawn) (For-Met-Phe-OH; configuration not given here) below 1? F

====

Experiment: chemical genetic growth profiling, strain panel (AID 1159580);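 further: tested at 20 µM; growth read once vehicle control cultures reached saturation at 30 °C; 1 = growth at the plate median or of vehicle wells; lower values mean less growth of the strain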
Settings: S. cerevisiae deletion strains, growth OD, locus YLL026W, hits give low values
The whole screen tested about 5,500 compounds, of which about 2,000 (36%) were called active. Roughly 18% stayed inconclusive and do not appear here. Some of the results follow.
Would you kindly list normalized growth for each of these molecules?
Answer field: number only, no words.

Lookup result for CC1(C)CC[C@]2(C(=O)O)CC[C@]3(C)C(=CCC4[C@@]5(C)CC[C@H](O)[C@@](C)(CO)C5CC[C@]43C)C2C1 (some centres undefined) ; measured normalized growth: 1.02

normalized growth recorded for this molecule, COc1c(-c2coc3cc4c(cc3c2=O)CC(O)C(C)(C)O4)ccc2c1C=CC(C)(C)O2 (centres undefined) , is 0.989

Per the record, C[C@@H]1CC[C@]2(C(=O)O)CC[C@]3(C)C(=CCC4[C@@]5(C)CC[C@H](O)C(C)(C)C5CC[C@]43C)C2[C@H]1C (some centres undefined) has normalized growth of 0.989

Sample CCCOc1ccccc1-c1nc2n[nH]nc2c(=O)[nH]1 ; normalized growth observed: 1.01

For Cc1cc(O)cc(O)c1C(=O)O the molecule record lists normalized growth as 1.02

Value of normalized growth reported for the molecule NC12CC3CC(CC(C3)C1)C2 is 1.01

For CC(=O)/C=C\[C@@H]1[C@@]2(C)CCCC(C)(C)C2CC[C@@]1(C)O (some centres undefined) the molecule record lists normalized growth as 0.991

The molecule CC(=O)O[C@H]1CC[C@@]2(C)C(CC[C@]3(C)C2CC=C2C4CC(C)(C)CC[C@]4(C)CC[C@]23C)C1(C)C (some centres undefined) showed normalized growth equal to 0.978

Consider COC(=O)C[C@H]1C(C)(C)C(=O)[C@@H]2CC3C4=CC(=O)O[C@@H](c5ccoc5)[C@]4(C)CCC3[C@@]1(C)C2=O (some centres undefined) . Its measured normalized growth is 0.982

====

Experiment: chemical genetic growth profiling, strain panel (AID 1159580);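 further: tested at 20 µM; growth read once vehicle control cultures reached saturation at 30 °C; 1 = growth at the plate median or of vehicle wells; lower values mean less growth of the strain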
Details: S. cerevisiae deletion strains, growth OD, locus YDR334W, strain swr1
About 2,000 (36%) of roughly 5,500 compounds were called active. Roughly 18% stayed inconclusive and do not appear here. No stated cut-off is given here; in the data, active means normalized growth mostly below about 0.91 (no sharp cut-off); inconclusive means no clear call, values can overlap the other calls; inactive means mostly above about 0.92. The list shows a part of the results.
Parameter call: string, one of class 1 = active, class 0 = inactive

Entry CNC(=O)O/N=C\C(C)(C)SC : call = ? class 0

Tell me the assay call for COc1ccc2[nH]cc(CCN)c2c1 please. class 0

// param item: COC(=O)C[C@H]1C(C)(C)C2(O)OC34CC2C(=O)[C@]1(C)C3CC[C@]1(C)C4=CC(=O)O[C@H]1c1ccoc1 (stereo not given in full) ; yields the recorded call class 0

Status in this test for CC(C)=CCCC1(C)C=Cc2c(O)c3c(c(CC=C(C)C)c2O1)OC12C(=CCCC1C(C)(C)O[C@@]2(C/C=C(\C)C(=O)O)C(=O)O)C3=O (stereo not given in full) ? class 0

Fill in: this test's call for CC(CC(=O)C1OC1(C)C)C1C(=O)CC2(C)C3=CCC4C(C)(C)C(OC5OCC(O)C(O)C5O)CCC45CC35C(O)CC12C (stereo not given) is ___ class 0

Short answer needed: outcome of this test for NNC(=O)c1ccncc1 ? class 0

// return assay outcome for CCCCCCCCCCCCCCC(C(=O)O)C(O)(CC(=O)OC)C(=O)O (stereo not given) class 0

Write down the call the test reported for this molecule. Item: C#C[C@]1(O)CCC2C3CCC4=CC(=O)CC[C@@H]4C3CC[C@@]21C (stereo not given in full) class 0

What did the test return for Cc1ccc(-c2cc(C(F)(F)F)nn2-c2ccc(S(N)(=O)=O)cc2)cc1 ? class 0

Kindly provide the recorded test outcome for the following molecule: COC1=C[C@@H]2[C@@H]3Cc4ccc(OC)c(O)c4[C@]2(CCN3C)CC1=O class 0

Record lookup: outcome of this test for CC(C)CCCC1(C)C=Cc2c(O)c3c(c(CCC(C)C)c2O1)OC12C(CC4CC1C(C)(C)OC2(CCC(C)C(=O)O)C4O)C3=O (stereo not given) ? class 0

Kindly provide the recorded test outcome for the following molecule: CC(C)CC(N(C)C)C1(c2ccc(Cl)cc2)CCC1 (stereo not given) class 0

Test call for this molecule, please: CCOC(=O)OC(C)OC(=O)C1N2C(=O)C(NC(=O)[C@H](N)c3ccccc3)C2SC1(C)C (stereo not given in full) class 0

Test call, this molecule: CCCOc1ccccc1-c1nc2n[nH]nc2c(=O)[nH]1 class 0

What was the test verdict on NC(N)=N/N=C/c1c(Cl)cccc1Cl ? class 0

Give the logged outcome of this assay for the following molecule: Cc1cc(O)cc(=O)o1 class 0

# lookup: test call for COC(=O)Nc1nc2ccc(C(=O)c3ccccc3)cc2[nH]1 class 1

// outcome(item) with item = Nc1ccc(S(=O)(=O)Nc2ccnn2-c2ccccc2)cc1 class 0

Dear colleague, could you share the recorded outcome for COc1cccc2c1C(=O)c1c(O)c3c(c(O)c1C2=O)C[C@@](O)(C(C)=O)C[C@@H]3O[C@H]1C[C@H](N)[C@H](O)[C@H](C)O1 when you have a moment? class 0

Hi team, can someone confirm the assay call for C#C[C@]1(O)CCC2C3CCC4=CC(=O)CC[C@@H]4C3CC[C@@]21CC (stereo not given in full) ? class 0

Hi team, can someone confirm the assay call for C[C@H]1[C@H](C)CC[C@]2(CO)CC[C@]3(C)C(=CCC4[C@@]5(C)CC[C@H](O)C(C)(C)C5CC[C@]43C)[C@H]12 (stereo not given in full) ? class 0

Assay result, entry Nc1c2ccccc2nc2ccccc12 — outcome? class 0

Outcome? CC(CC(=O)C(O)C(C)(C)O)C1C(=O)CC2(C)C3=CCC4C(C)(C)C(OC5OCC(O)C(O)C5O)CCC45CC35C(O)CC12C (stereo not given) class 0

Dear all, I need the recorded test outcome for C#C[C@]1(OC(C)=O)CCC2C3CCC4=C/C(=N\O)CCC4C3CC[C@@]21CC (stereo not given in full) , thank you. class 0

Could you check what this test reported for CCN1C[C@]2(OC(=O)c3ccccc3NC(C)=O)CCC(OC)[C@]34C1[C@H](CC23)[C@@]1(O)CC(OC)[C@H]2CC4C1(O)[C@H]2OC (stereo not given in full) ? class 0

What call does the record list for O=C(O)CC(O)(CC(=O)O)C(=O)O ? class 0

Dear all, I need the recorded test outcome for C/C=C(/C)C(=O)O[C@@H]1[C@H](OC(C)=O)[C@@]2(CO)C(CC1(C)C)C1=CCC3[C@@]4(C)CC[C@H](O[C@@H]5O[C@H](C(=O)O)[C@@H](O[C@@H]6O[C@H](CO)[C@@H](O)[C@H](O)[C@H]6O)[C@H](O)[C@H]5O[C@@H]5O[C@H](CO)[C@@H](O)[C@H](O)[C@H]5O)[C@](C)(CO)C4CC[C@@]3(C)[C@]1(C)C[C@H]2O (stereo not given in full) , thank you. class 0

What call does the record list for CC(=O)/C=C\[C@@H]1[C@@]2(C)CCCC(C)(C)C2CC[C@@]1(C)O (stereo not given in full) ? class 0

Fill in: this test's call for COC(=O)Nc1nc2ccc(S(=O)c3ccccc3)cc2[nH]1 (stereo not given) is ___ class 0

What did this assay record as the result for CNCc1ccccc1 ? class 0

====

Assay: chemical genetic growth profiling, strain panel (AID 1159580);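 further: tested at 20 µM; growth read once vehicle control cultures reached saturation at 30 °C; 1 = growth at the plate median or of vehicle wells; lower values mean less growth of the strain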
Conditions: S. cerevisiae deletion strains, growth OD, locus YNL183C, strain NPR1, hits give low values
Screen size: about 5,500 compounds; about 2,000 (36%) were called active. Roughly 18% stayed inconclusive and do not appear here. The list shows a part of the results.
Would you kindly list normalized growth for each of these molecules?
Form: value (number only, do not type unit).

The recorded normalized growth for C[C@@H]1CC[C@H]2[C@@H](C)C(O)O[C@@H]3O[C@@]4(C)CC[C@@H]1[C@]32OO4 (stereo partly drawn) is 0.266

Recorded result, CC1(C)CC[C@]2(C(=O)O)CC[C@]3(C)C(=CCC4[C@@]5(C)CC[C@@H](O)C(C)(C)C5CC[C@]43C)C2C1 (stereo partly drawn) , normalized growth: 0.994

The value of normalized growth measured for the molecule Clc1ccc2c(c1)c1ccccc1n2CN1CCOCC1 turned out to be 0.658

Record summary for COC(=O)C[C@H]1C(C)(C)C2(O)OC34CC2C(=O)[C@]1(C)C3CC[C@]1(C)C4=CC(=O)O[C@H]1c1ccoc1 (stereo partly drawn) : reported normalized growth = 0.931

Lookup result for Nc1ccccc1C(=O)N/N=C\c1cc(Br)ccc1O ; measured normalized growth: 0.958

Given item O=C(CNC(=O)c1ccc(Cl)cc1)NO , the value recorded as its normalized growth is 0.951

Quick note, normalized growth for CCC(C)C(=O)O[C@H]1[C@H](O)C2C(CN3CC(C)CCC3[C@@]2(C)O)C2C[C@]34O[C@]5(O)C(OC(=O)C(C)(O)CC)CC[C@@]3(C)C5C(OC(C)=O)[C@@H](OC(C)=O)C4[C@@]21O (stereo partly drawn) landed at 0.99

Summary for this molecule, NC(N)=N/N=C/c1c(Cl)cccc1Cl : normalized growth is 0.952

Consider O=c1[nH]cc(F)c(=O)[nH]1 . Its measured normalized growth is 0.611

Recorded normalized growth (molecule C[C@@H]1C(=O)O[C@H]2[C@H]1CC[C@@]1(C)C=CC(=O)[C@@]3(C)O[C@@]213 ): 0.974

Summary for this molecule, Cc1ccc(N=CN(C)C=Nc2ccc(C)cc2C)c(C)c1 : normalized growth is 0.976

Quick note, normalized growth for CC(C)=CCCC1(C)C=Cc2c(O)c3c(c(CC=C(C)C)c2O1)OC12C(=CC4CC1C(C)(C)OC2(C/C=C(/C)C(=O)O)C4O)C3=O (stereo not drawn) landed at 0.917

The molecule identified as O=C(NCC1COc2ccccc2O1)c1ccc(Cl)cc1 (stereo not drawn) registered its normalized growth at 0.796

// COC(=O)C[C@H]1C(C)(C)C(=O)[C@@H]2CC3C4=CC(=O)O[C@@H](c5ccoc5)[C@]4(C)CCC3[C@@]1(C)C2=O (stereo partly drawn) : normalized growth value = 0.972

The molecule listed as NCCC(=O)N[C@@H](Cc1cnc[nH]1)C(=O)O shows normalized growth equal to 0.983

Form field normalized growth, entry COc1cccc2c1C(=O)c1c(O)c3c(c(O)c1C2=O)C[C@@](O)(C(=O)CO)C[C@@H]3OC1C[C@H](N)[C@H](O)[C@H](C)O1 (stereo partly drawn) : 0.801

# molecule CC1(C)CC[C@]2(C)CC[C@]3(C)C(=CCC4[C@@]5(C)CC[C@H](O)C(C)(C)C5CC[C@]43C)C2C1 (stereo partly drawn) ; its normalized growth = 0.984

Entry CCCNCCCCCC[N+](C)(C)C — recorded normalized growth = 0.932
